assay: protein stability index of a GFP-peptide fusion (GPS, HEK-293T) (PSI 1-6); higher = more stable; details: treatment: DMSO; c terminus: a fixed tail appended;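 note: 24-mer peptide tiles fused after GFP, lentivirally expressed, FACS-sorted into six equal bins by GFP/DsRed ratio, decoded by Illumina sequencing, PSI is the read-weighted mean bin number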
property.name: protein stability index
Answers are plain numbers.

Some solved entries appear below for comparison.
GAYDFPSPEWDTVTPEAKDLINKM [CAMK2D] ... 4.54
SFGQVVKAYDHQTQELVAIKIIKN [DYRK1B] ... 2.76
ASDYFKAMFTGGMKEQDLMCIKLH [KLHL13] ... 2.13
HPAFLPQRQAIKGAFYRRAQRLRP [KCNG1] ... 3.32
PLLHKDSASLEVVKKDHVALQVPR [CBY2] ... 4.31
CRALRDPALDSLAYEYEREGLYEQ [TRADD] ... 3.73

Need protein stability index for each of these sequences.
1. IFAGVHDEKAKPRDRQQAPGLGQE [TLE6]
2. GRRCKKCTEGPIDLVFVIDGSKSL [MATN2]
3. PEASHLRFRRFRFQEAAGPREALS [ZNF263]
4. YDQQIWEKSIEQTQIKGLKNKPKK [PHTF1]

1. 4.73
2. 2.06
3. 3.15
4. 4.9

Need protein stability index for each of these sequences.
1. EEAEGARWTSYRFSRVCRLHRGQL [TRIM35]
2. KLIRDFDEKQQEANETLAEMEEEL [VTI1B]
3. DREEEAIHHLVLTASDGGDPLRSG [PCDHGA10]
4. HLVPVIEMWADQLTSLKDLYKSLK [CEP70]

1. 2.91
2. 4.89
3. 5.02
4. 2.47

Need protein stability index for each of these sequences.
1. ITCLTCQGTGYIPTEQVNELVALI [TMEM106C]
2. KRLKERSLDTLLEAVESRGGVPGG [SMAD6]
3. ACPVCSKMVPRYDLNRHLDEMCAN [FAN1]
4. QNVRNHIHSCFSDVTCFLLPHPGL [ATL3]
5. SWRTLAILVNLQGTVVFLLSLFIP [SLC22A15]
6. LRYLSSIWNILDLVVILLSIVAVG [PKD2L1]

[2.17, 4.32, 2.6, 2.49, 3.4, 2.66]

###

Consider the following sequences; for each one, report its protein stability index.
assay: protein stability index of a GFP-peptide fusion (GPS, HEK-293T) (PSI 1-6); higher = more stable; settings: treatment: MLN4924 1 uM, 8 h; c terminus: a fixed tail appended
One number for each entry.

ELKTFRLKTRSWAGERSRRELCSR [CDC25B] ... 3.44
EESTPGQTNSETAVVALTQDQPSE [HDAC6] ... 5.59
ENGYGFHLNAIRGLPGSFIKEVQK [PDZK1] ... 2.97
GSVALGPVCPTVCPPGGIHQVTVN [KRT71] ... 3.52
KVPFSQEIKDLILPKISDPNFVKD [PI4K2A] ... 3.56

Need protein stability index for each of these sequences.
1. LENTYRDFWLMVWEQKVLVIVMTT [PTPN9]
2. QSQLICILKRRSDEALERCQILEL [CCDC89]
3. VLITVEDVNDNSPELTITSLFSPV [PCDHGA10]
4. FSVKFEVQAPRWGNPRALSFVLSS [OAS1]
5. SVMFRKWRDSKGKDKEYAEIIRKQ [UBE2R2]
6. NVLHVARLPNRQLISCSEDGSVRI [WDR41]
7. GFSLEDPQTHSNRIYRMIKLGLGI [HSP90AB1]
8. DKENGENVGLESKYLKKREDSIPL [SASS6]

1. 2.59
2. 2.04
3. 2.07
4. 3.01
5. 2.99
6. 3.12
7. 2.29
8. 4.76
